assay: qHTS for Inhibitors of Plasmodium falciparum (GB4) proliferation (AID 504315);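 note: 0% = DMSO vehicle and -100% = 0.29 µM artemisinin control; nearly all actives have a fitted effect of over 50% in size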; conditions: P. falciparum GB4 in erythrocytes, SYBR Green DNA, 72 h; series mostly up to 6.7 µM
Results filed as inconclusive are left out. The source made the active and inactive calls. Calls come from the whole dose curve; as a rule, active = well fitted inhibition curve with a large enough effect; inconclusive = small, poorly fitted or top-dose-only effect, or effect the other way; inactive = flat fitted curve, though single readings scatter.
readout_type: outcome

Look over these answered cases.
[[record]]
compound = "C=CCC12OC3(OC)CC1[C@H](C)[C@@H](c1ccccc1)C2[C@@]3(C)O (stereo not given in full)"
readout_type = "outcome"
observed_measurement = "inactive"

[[record]]
compound = "COC(=O)CC=C[C@@H](C)[C@@H](COc1ccccc1Br)OC"
readout_type = "outcome"
observed_measurement = "inactive"

[[record]]
compound = "CC=COC(=O)N[C@@H](c1cccc(C)c1)[C@]1(C(=O)OCC)CCCC1=O"
readout_type = "outcome"
observed_measurement = "inactive"

[[record]]
compound = "COC1=C[C@H](C(=O)NCc2ccccn2)[C@H](C)[C@@H](c2ccccc2)CC1=O"
readout_type = "outcome"
observed_measurement = "inactive"


# ---- query compound ----
QUERY: Please indicate outcome recorded for C=CC1=C2C=C(C3CC3)N(c3ccc(OC)cc3)C=C2C(=O)C(C)(OC(=O)c2ccco2)C1=O (stereo not given)
RESULT: inactive

###

System: Zika virus NS2B-NS3 protease (linked construct)
Test: Primary screen NINDS Rhodamine qHTS for Zika virus inhibitors (AID 1347160); note: nearly all actives have a fitted effect of over 55% in size
Conditions: purified NS2B-NS3 protease, Rhodamine110 substrate fluorescence; series mostly up to 57.1 µM
From the text: Avindra Nath, Ph.D., National Institute of Neurological Disorders and Stroke (NINDS), Bethesda, MD Radhakrishnan Padmanabhan, Ph.D., Georgetown University (GU), Washington D.C. Zika Virus causes congenital defects, including microcephaly and is associated with Guillain-Barre syndrome, eningoencephalitis and myelitis in infected adult. […]
Results filed as inconclusive are left out. Calls of active or inactive are those of the source. Calls follow the shape of the dose curve; as a rule, active = well fitted inhibition curve with a large enough effect; inconclusive = small, poorly fitted or top-dose-only effect; inactive = no such curve, though single readings can be large or run the other way.
Use one of these outcomes when replying: YES = active, NO = inactive

For orientation, consider the following solved cases.
[[record]]
compound = "C=C(C)C(=O)O[C@H]1[C@H]2C(=C)C(=O)O[C@@H]2C[C@@H](C)/C=C\\C(=O)[C@](C)(O)[C@@H]1OC(C)=O"
label_class = "NO"

[[record]]
compound = "COc1ccc(NS(=O)(=O)c2sc3ccc(Cl)cc3c2C)cc1N1CCNCC1"
label_class = "NO"

[[record]]
compound = "COc1ccc(/C=C2\\COc3cc(O)ccc3C2=O)cc1"
label_class = "YES"

[[record]]
compound = "COc1ccc([C@@H]2c3cc(OC)c(OC)cc3C(=O)C(C)C2C)cc1OC (some centres undefined)"
label_class = "NO"

[[record]]
compound = "CC(C)N(CCCNC(=O)Nc1ccc(C(C)(C)C)cc1)C[C@H]1O[C@@H](n2cc(Br)c3c(N)ncnc32)[C@H](O)[C@@H]1O"
label_class = "NO"


QUERY: For O=Cc1ccc2n1C[C@@]1(OC2)O[C@H](CO)[C@@H](O)[C@@H]1O , which call appears in the assay record?
RESULT: NO

QUERY: For CC1OC2OC3C(OCC(O)C3O)OC(=O)C34CCC(C)(C)CC3C3=CCC5C6(C)CC(O)C(OC7OC(CO)C(O)C(O)C7OC7OCC(OC(=O)CC(C)(O)CC(=O)OC1C(OC1OCC(O)C(O)C1O)C2O)C(O)C7O)C(C)(CO)C6CCC5(C)C3(C)CC4O (centres undefined) , which call appears in the assay record?
RESULT: NO

QUERY: For COc1ccccc1NC(=O)Nc1ccc2ccccc2c1 , which call appears in the assay record?
RESULT: NO

QUERY: For CCC1=C2CCCN3C(=O)O[C@H]([C@H]1OC(C)=O)[C@H]23 , which call appears in the assay record?
RESULT: NO

###

Provide the recorded activity for the entries that follow.
biological target: Catechol O-methyltransferase (Homo sapiens) (UniProt P21964); test: Confirmatory Screen for Target Class Profiling of Small Molecule Inhibitors of Methyltransferases (AID 1745852); settings: MTase-Glo luminescence, SAH detection, recombinant enzyme; measured here: COMT max response; stronger effect = lower value
Sequence (P21964 whole entry, looked up): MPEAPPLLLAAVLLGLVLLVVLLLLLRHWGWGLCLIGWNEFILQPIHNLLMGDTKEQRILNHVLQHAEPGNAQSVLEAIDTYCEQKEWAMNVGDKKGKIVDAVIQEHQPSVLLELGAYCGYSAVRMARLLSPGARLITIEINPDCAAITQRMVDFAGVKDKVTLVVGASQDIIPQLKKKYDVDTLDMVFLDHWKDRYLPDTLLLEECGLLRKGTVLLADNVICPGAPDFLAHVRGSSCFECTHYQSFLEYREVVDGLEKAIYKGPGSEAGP
Numbers only, in %.

Look over these answered cases.
[[record]]
molecule = "CN(C)CCNC(=O)c1cccn2c(=O)c3cc4ccccc4cc3nc12"
readout_type = "activity"
observed_measurement = 3

[[record]]
molecule = "Cc1ccn(-c2cc(Cl)ccc2[C@@H](Oc2cc(-c3ccc(C[C@H](N)C(=O)O)cc3)nc(N)n2)C(F)(F)F)n1"
readout_type = "activity"
observed_measurement = -0.316

[[record]]
molecule = "CC(C)(C)c1ccc(-c2nc3ccccc3[nH]2)cc1"
readout_type = "activity"
observed_measurement = -68.9


List reported activity for each of these molecules:
1. CNCCN(C)Cc1cn[nH]c1-c1ccc(OC2CC(OCCC3CCOCC3)C2)cc1 (stereo not given)
2. CN1C2CCCC1CC(NC(=O)c1nn(C)c3ccccc13)C2 (stereo not given)

RESULT:
[0.741, 1.32]

###

Target: Atrial natriuretic peptide receptor 1 (Homo sapiens) (UniProt P16066)
Sequence (P16066 whole entry, looked up): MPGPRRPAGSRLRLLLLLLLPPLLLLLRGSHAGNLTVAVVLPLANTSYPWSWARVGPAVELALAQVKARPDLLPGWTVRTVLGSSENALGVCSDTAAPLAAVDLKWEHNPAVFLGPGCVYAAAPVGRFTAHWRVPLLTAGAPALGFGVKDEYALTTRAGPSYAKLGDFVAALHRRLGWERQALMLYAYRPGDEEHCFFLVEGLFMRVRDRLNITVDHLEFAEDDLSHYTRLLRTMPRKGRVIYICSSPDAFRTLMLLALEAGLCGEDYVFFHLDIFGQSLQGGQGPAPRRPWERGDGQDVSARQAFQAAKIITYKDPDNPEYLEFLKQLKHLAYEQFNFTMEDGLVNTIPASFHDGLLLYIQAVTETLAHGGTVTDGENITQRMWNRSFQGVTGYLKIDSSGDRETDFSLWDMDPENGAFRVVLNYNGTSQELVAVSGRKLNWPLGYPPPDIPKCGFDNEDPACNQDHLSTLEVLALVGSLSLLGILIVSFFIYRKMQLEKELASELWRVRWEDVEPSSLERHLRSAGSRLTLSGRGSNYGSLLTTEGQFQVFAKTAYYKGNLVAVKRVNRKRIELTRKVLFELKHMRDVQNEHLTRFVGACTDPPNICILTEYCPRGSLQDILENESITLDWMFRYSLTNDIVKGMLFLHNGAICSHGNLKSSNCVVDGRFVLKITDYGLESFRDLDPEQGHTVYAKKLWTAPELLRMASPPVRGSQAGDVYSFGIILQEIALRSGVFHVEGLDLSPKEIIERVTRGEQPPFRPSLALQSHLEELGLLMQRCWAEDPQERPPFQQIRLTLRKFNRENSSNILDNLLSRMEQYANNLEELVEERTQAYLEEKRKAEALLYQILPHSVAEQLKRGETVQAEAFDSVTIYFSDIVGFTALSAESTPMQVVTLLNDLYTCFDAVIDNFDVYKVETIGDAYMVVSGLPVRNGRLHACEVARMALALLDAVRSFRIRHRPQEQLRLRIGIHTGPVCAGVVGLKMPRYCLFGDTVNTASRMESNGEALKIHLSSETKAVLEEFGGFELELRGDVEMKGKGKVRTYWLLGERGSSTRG
Assay: Natriuretic polypeptide receptor (hNpr1) antagonism - Pilot CMLD screen (AID 1347052);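 note: HEK293 cells with hNpr1 stimulated by hNppA peptide at 0.1 nM; cGMP level read as GloSensor luciferase luminescence after agonist stimulation; % is set by controls: 0 for no effect and ±100 for the full control effect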
Details: HEK293 hNpr1 GloSensor cGMP luminescence, ANP-stimulated; series mostly up to 9.22 µM
Text: […] 7. […] GloSensor baseline pre-read luminescence measured using CCD-based camera (Viewlux). […] 10. […] GloSensor post-hNppA luminescence measured using CCD-based camera (Viewlux). […] 1. […] Cells counted with Invitrogen Countess (30,000,000 - 50,000,000 cells/flask). […]
Results filed as inconclusive are left out. Calls of active or inactive are those of the source. The call rests on the fitted dose curve.
Use one of these outcomes when replying: active, inactive

For orientation, consider the following solved cases.
[[record]]
compound = "Cc1c(O)c(=O)c2ccccc2n1C"
target_of_assay = "Atrial natriuretic peptide receptor 1 (Homo sapiens) (UniProt P16066)"
label_class = "inactive"

[[record]]
compound = "O=C(C=Cc1ccc2c(c1)OCO2)c1ccc(F)cc1"
target_of_assay = "Atrial natriuretic peptide receptor 1 (Homo sapiens) (UniProt P16066)"
label_class = "inactive"

[[record]]
compound = "CCN1C(=NCCc2ccccn2)NC(c2cccs2)C(C(=O)OC)=C1C (configuration not stated)"
target_of_assay = "Atrial natriuretic peptide receptor 1 (Homo sapiens) (UniProt P16066)"
label_class = "inactive"


QUERY: For CCCCCCC#Cc1cc(OC)c(OC)cc1C(N1CC(C)c2ccccc21)N1CC(C)c2ccccc21 (configuration not stated) , which call appears in the assay record?
RESULT: inactive

###

test system: CP238; assay: qHTS profiling for inhibitors of Plasmodium falciparum proliferation (AID 504749); note: nearly all actives have a fitted effect of over 60% in size; conditions: P. falciparum in erythrocytes, SYBR Green DNA, 72 h; series mostly up to 28.7 µM
Results filed as inconclusive are left out. Active and inactive are the calls of the source. Calls follow the shape of the dose curve; as a rule, active = well fitted inhibition curve with a large enough effect; inconclusive = small, poorly fitted or top-dose-only effect; inactive = flat fitted curve, though single readings scatter.
Use one of these outcomes when replying: active, inactive

[[record]]
compound = "C[C@@H](C(=O)O)c1ccc(-c2ccccc2)c(F)c1"
target_of_assay = "CP238"
label_class = "inactive"

[[record]]
compound = "COC(=O)[C@@H]1[C@@H]2C[C@H]3c4[nH]c5ccccc5c4CCN3C[C@@H]2CC[C@@H]1O"
target_of_assay = "CP238"
label_class = "inactive"

[[record]]
compound = "O=C(CC1NCCC[C@H]1O)Cn1cnc2cc(Br)c(Cl)cc2c1=O (stereo not given in full)"
target_of_assay = "CP238"
label_class = "active"


QUERY: For CCCCC(=O)N(Cc1ccc(-c2ccccc2-c2nn[nH]n2)cc1)C(C(=O)O)C(C)C (stereo not given) , which call appears in the assay record?
RESULT: inactive

QUERY: For O=C1c2cccc3c2[C@@H](CCC3)CN1[C@@H]1CN2CCC1CC2 , which call appears in the assay record?
RESULT: inactive

###

test system: CP191; assay: qHTS profiling for inhibitors of Plasmodium falciparum proliferation (AID 504749); note: nearly all actives have a fitted effect of over 60% in size; conditions: P. falciparum in erythrocytes, SYBR Green DNA, 72 h; series mostly up to 28.7 µM
Inconclusive results are not listed. Calls of active or inactive are those of the source. The call rests on the fitted dose curve; in most records, active means well fitted inhibition curve with a large enough effect; inconclusive means small, poorly fitted or top-dose-only effect; inactive means flat fitted curve, though single readings scatter.
Use one of these outcomes when replying: class 1 (active), class 0 (inactive)

[[record]]
compound = "CC(C)(O)c1ccccc1CC[C@H](SCC1(CC(=O)O)CC1)c1cccc(/C=C/c2ccc3ccc(Cl)cc3n2)c1"
target_of_assay = "CP191"
label_class = "class 0"

[[record]]
compound = "O=C(CC1NCCC[C@H]1O)Cn1cnc2cc(Br)c(Cl)cc2c1=O (stereo partly specified)"
target_of_assay = "CP191"
label_class = "class 1"

[[record]]
compound = "O=C1c2cccc3c2[C@@H](CCC3)CN1[C@@H]1CN2CCC1CC2"
target_of_assay = "CP191"
label_class = "class 0"

[[record]]
compound = "COC(=O)[C@@H]1[C@@H]2C[C@H]3c4[nH]c5ccccc5c4CCN3C[C@@H]2CC[C@@H]1O"
target_of_assay = "CP191"
label_class = "class 0"

[[record]]
compound = "CN1CCN(CCC=C2c3ccccc3Sc3ccc(S(=O)(=O)N(C)C)cc32)CC1"
target_of_assay = "CP191"
label_class = "class 1"


QUERY: For CC(=O)[C@H]1CC[C@H]2C3CC=C4C[C@@H](O)CC[C@]4(C)C3CC[C@]12C (stereo partly specified) , which call appears in the assay record?
RESULT: class 0
